Listed here are binders together with their documented Rel IC50.
- Tested On: T1, DDE
- T1 chain 1: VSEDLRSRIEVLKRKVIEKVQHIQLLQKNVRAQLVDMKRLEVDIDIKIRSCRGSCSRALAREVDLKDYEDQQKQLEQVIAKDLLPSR
- T1 chain 2: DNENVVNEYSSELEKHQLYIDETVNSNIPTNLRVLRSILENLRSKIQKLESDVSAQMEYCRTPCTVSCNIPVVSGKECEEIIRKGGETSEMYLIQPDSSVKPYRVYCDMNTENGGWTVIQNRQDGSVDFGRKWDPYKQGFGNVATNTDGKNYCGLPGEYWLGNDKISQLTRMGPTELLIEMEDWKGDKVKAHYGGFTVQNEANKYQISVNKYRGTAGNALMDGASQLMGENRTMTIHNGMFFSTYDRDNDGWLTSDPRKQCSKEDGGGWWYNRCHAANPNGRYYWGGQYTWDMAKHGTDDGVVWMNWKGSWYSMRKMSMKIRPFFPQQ
- T1 chain 3: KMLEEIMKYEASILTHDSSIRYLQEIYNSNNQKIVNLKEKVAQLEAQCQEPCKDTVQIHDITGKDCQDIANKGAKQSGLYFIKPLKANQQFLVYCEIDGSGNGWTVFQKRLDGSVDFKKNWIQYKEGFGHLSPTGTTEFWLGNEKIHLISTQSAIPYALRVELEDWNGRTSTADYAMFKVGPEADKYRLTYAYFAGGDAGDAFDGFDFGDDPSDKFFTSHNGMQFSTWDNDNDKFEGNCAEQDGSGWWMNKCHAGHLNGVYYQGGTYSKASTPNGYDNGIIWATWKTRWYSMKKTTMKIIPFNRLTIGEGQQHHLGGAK
- T1 chain 4: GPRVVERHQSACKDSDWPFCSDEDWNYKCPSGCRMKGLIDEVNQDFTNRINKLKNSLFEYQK
- T1 chain 5: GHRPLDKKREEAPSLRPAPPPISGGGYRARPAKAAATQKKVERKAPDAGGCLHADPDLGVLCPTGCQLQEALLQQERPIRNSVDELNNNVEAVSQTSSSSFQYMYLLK
- T1 chain 6: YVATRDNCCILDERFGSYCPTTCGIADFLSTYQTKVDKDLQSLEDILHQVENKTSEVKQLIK
- Method: competition fluorescence polarization: unlabeled peptide against Seq000-CF5 tracer on DDE; n = 2
Bridge positions count the residues as written; N and C are the ends.

Input: Return value of Rel IC50 for input Ac-SGSGSGSGWQPCPWESWTFCWDPGGGK-NH2 (disulfide 12-20) [Seq024-P] , no commentary.
Output: 0.527 ratio to the reference peptide

Input: Provide measured Rel IC50 value, entry: Ac-GPPGWQPCPWESWTFCWDPGGGK-NH2 (disulfide 8-16) [Seq014-P]
Output: 0.235 ratio to the reference peptide

Input: For the binder H-RGWQPCPWESWTFCWDPGGGK-NH2 (disulfide 6-14) [Seq022-P] , give its reported Rel IC50.
Output: 0.511 ratio to the reference peptide

Source listed as patent US20120328512A1.
